study_system: T1, recombinant human Ang2-FLD (human, UniProt O15123 275-496, limits assumed)
T1 construct: domain: FLD; not used
T1 sequence (looked up): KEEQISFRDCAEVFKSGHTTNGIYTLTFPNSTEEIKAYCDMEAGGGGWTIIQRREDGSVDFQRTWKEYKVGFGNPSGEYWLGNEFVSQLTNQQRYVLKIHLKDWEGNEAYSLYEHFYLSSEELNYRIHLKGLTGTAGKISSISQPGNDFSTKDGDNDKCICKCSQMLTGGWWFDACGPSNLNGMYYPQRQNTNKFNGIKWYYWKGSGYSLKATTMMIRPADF
test_name: ProteOn off-rate assay, periplasmic extract 1:10 over coated human Ang2-FLD
Provide the recorded koff for the entries that follow.
One number for each entry, in s⁻¹.

Take a look at these entries with their results.
- binder: "VHH 64G12 (VHH, periplasmic extract; not shown: C-terminal c-myc tag and His6 tag) VHH: EVQLVESGGGLVQAGGSLRLSCAVSGFTLDDYAIGWFRQAPGKEREGVSSIRENDGSTYYADSVQGRFTISSDNDKNTVYLRMNSLKPEDTAVYYCAAVPAGRLRFGEQWYPIYEYDAWGQGTLVTVSS"
  readout_unit: "s⁻¹"
  readout_number: 0.00013
- binder: "VHH 55G03 (VHH, periplasmic extract; not shown: C-terminal c-myc tag and His6 tag) VHH: EVQLVESGGSLVQAGGSLRLSCAASGLTLDDYAIGWFRQAPGKEREGVSSIRDNDGSTYYADSVKGRFTISSDNDKNTVYLQMNSLKPEDTAVYYCAAVPAGRLRFGEQWYPIYEYDAWGQGTLVTVSS"
  readout_unit: "s⁻¹"
  readout_number: 0.00015
- binder: "VHH 65F01 (VHH, periplasmic extract; not shown: C-terminal c-myc tag and His6 tag) VHH: EVQLVESGGGLVQAGGSLRLSCAASGLTLDDYAIGWFRQAPGKEREGVSSIRDNDGSRYYADSVKGRFTISSDNDKNTVYLQMNSLKPEDTAVYYCAAVPAGRLRFGEQWYPIYEYDAWGQGTLVTVSS"
  readout_unit: "s⁻¹"
  readout_number: 0.00016

I would be grateful if you could provide koff for each of the following entries.
1. VHH 64C07 (VHH, periplasmic extract; not shown: C-terminal c-myc tag and His6 tag) VHH: EVHLVESGGGLVQAGGSLRLSCAASGLTLDDYAIGWFRQAPGVEREGVSSIRDNDGSTYYADSVKGRFTISSDNDKNTVYLQMNSLKPEDTAVYYCAAVPAGRLRFGEQWYPIYEYDAWGQGTLVTVSS
2. VHH 55F02 (VHH, periplasmic extract; not shown: C-terminal c-myc tag and His6 tag) VHH: EVQLVESGGGLVQSGGSLRLSCAASGLTLDDYAIGWFRQAPGKEREGVSSIRDNDGSTYYADSVKGRFTISSDNDKNTVYLQMNSLKPEDTAVYYCAAVPAGRLRFGEQWYPIYEYDAWGQGTLVTVSS
3. VHH 64C03 (VHH, periplasmic extract; not shown: C-terminal c-myc tag and His6 tag) VHH: EVQLVESGGGLVQAGGSLRLSCAASGFTLDDYAIGWFRQAPGKEREGVSSIRDNDGSTYYADSVKGRFTISSDNDKNTVYLQMNSLKPEDTAVYYCAAVPAGRLRYGEQWYPIYEYDAWGQGTLVTVSS
4. VHH 60A06 (VHH, periplasmic extract; not shown: C-terminal c-myc tag and His6 tag) VHH: EVQLVESGGGLVQAGGSLRLSCAASGFTLDDYAIGWFRQAPGKDREGVSSIRDNDGSTYYADSVKGRFTISSDNDKNTVYLQMNSLKPEDTAVYYCAAVPAGRLRYGEQWYPIYEYDAWGQGTVVTVSS
5. VHH 64G01 (VHH, periplasmic extract; not shown: C-terminal c-myc tag and His6 tag) VHH: EVQLVESGGGLVQAGGSLRLSCAASGFTLDDYAIGWFRQAPGKEREGVSSIRDNDGSTYYADSVKGRFIISSDNDKNTVYLQMNNLKPEDTAVYYCAAVPAGRLRYGEQWYPIYEYDAWGQGTLVTVSS
6. VHH 58D10 (VHH, periplasmic extract; not shown: C-terminal c-myc tag and His6 tag) VHH: EELLVESGGGSVQAGGSLKLSCAASGLTLDDYAIGWFRQAPGKEREGVSSIRDNDGSTYYADSVKGRFTISSDNDKNTVYLQMNSLKPEDTAVYYCAAVPAGRLRFGEQWYPIYEYDAWGQGTLVTVSS
7. VHH 65F03 (VHH, periplasmic extract; not shown: C-terminal c-myc tag and His6 tag) VHH: EVQMVESGGGLVQAGGSLRLSCAASGLTLDDYAIGWFRQAPGKEREGVSSIRDNDGSTYYADSVKGRFTISSDNDKNTVYLQMNGLKPEDTAVYYCAAVPAGRLRFGEQWYPIYEYDAWGQGTLVTVSS

*A*
[0.00014, 0.00014, 0.00013, 0.00016, 0.00014, 0.00013, 0.00014]

Please look at the items below and tell me koff for each one, in order.
1. VHH 53A06 (VHH, periplasmic extract; not shown: C-terminal c-myc tag and His6 tag) VHH: EVQLVESGGSLVQAGGSLRLSCAASGLTLDDYAIGWFRQAPGKEREGVSSIRDNDGSTYYADSVKGRFTISSDNDKNTVYLQMNSLKPEDTAVYYCAAVPAGRLRFGEQWYPIYEYDAWGQGTLVTVSS
2. VHH 55A06 (VHH, periplasmic extract; not shown: C-terminal c-myc tag and His6 tag) VHH: EVQLMESGGGLVQAGGSLRLSCAASGITLDDYAIGWFRQAPGKEREGVSSIRDNDGSTYYADSVKGRFTISSDNDKNTVNLQMNSLKPEDTAVYYCAAVPAGRLRFGEQWYPIYEYDAWGQGTLVTVSS
3. VHH 55D06 (VHH, periplasmic extract; not shown: C-terminal c-myc tag and His6 tag) VHH: EVQLVESGGGLVQAGGSLRLSCAASGLTLDDYAIGWFRQAPGKEREGVSSIRDNDGSTYYADSVKGRFTISSDNDKNTVYLQMNSLKPEDTAVYYCAAVPAGRLRFGEQWYPIYEYDAWGQGTLVTVSS
4. VHH 64F03 (VHH, periplasmic extract; not shown: C-terminal c-myc tag and His6 tag) VHH: EVQLVESGGGLVQAGGSLRLSCAVSGITLDDYAVGWFRQAPGKEREGVSTIRDNDGSTYYADSVKGRFTISSDNDKNTVYLQMNSLKPKDTAVYYCAAVPAGRLRFGEQWYPIYEYDAWGQGTLVTVSS
5. VHH 64G03 (VHH, periplasmic extract; not shown: C-terminal c-myc tag and His6 tag) VHH: EVQLVESGGGLVQAGGSLRLSCAASGFTLDDYAIGWFRQAPGKEREGVSSIRDNDGSTYYADSVKGRSTISSDNDKNTVYLQMDSLKPEDTAVYYCAAVPAGRLRYGEQWYPIYEYDAWGQGTLVTVSS

*A*
[0.00016, 0.00013, 0.00012, 0.00011, "7.4e-05"]

Source of measurements: patent US20230203146A1
